Listed next: entries and their corresponding solubility kinetic at 500 µM.
# assay.protocol: Kinetic solubility of the compound in pH 8 Tris buffer at 500 uM after 90 by UV-Vis absorbance analysis
# Type: physicochemical
# condition.description: read-out: Kinetic_solubility
Please state the value followed by its unit.

{"compound": "Cn1ccc2ccc(-c3cc(Nc4ccccc4S(=O)(=O)N4CCOCC4)cc4nccnc34)cc21", "result": "5 µg/mL"}

Kindly consider the entry below.
Field request: solubility kinetic at 500 µM | item: CN1CCCC(NC(=O)c2ccncc2Nc2cc(-c3ccc4ccn(C)c4c3)c3nccnc3c2)C1 (centres undefined) 246 µg/mL

====

# assay.protocol: Kinetic solubility of the compound in pH 8 Tris buffer at 500 uM after 90 by UV-Vis absorbance analysis
# Format: physicochemical
# condition.description: read-out: Kinetic_solubility
result.type: solubility kinetic at 500 µM (µg/mL)
State the answer as a number, implicitly in µg/mL.

# example entries with known answers
{"compound": "Cn1ccc2ccc(-c3cc(Nc4ccccc4S(C)(=O)=O)cc4nccnc34)cc21", "readout.number": 2}
{"compound": "CN1CCC(NC(=O)c2ccncc2Nc2cc(-c3ccc4ccn(C)c4c3)c3nccnc3c2)C1 (configuration not stated)", "readout.number": 229}
{"compound": "CNS(=O)(=O)c1ccccc1Nc1cc(-c2ccc3ccn(C)c3c2)c2nccnc2c1", "readout.number": 2}
{"compound": "Cc1csc2ccc(-c3cc(Nc4cnccc4C(=O)N[C@@H]4CCN(C)C4)cc4nccnc34)cc12", "readout.number": 79}
{"compound": "CN1CCC(N(C)C(=O)c2ccncc2Nc2cc(-c3ccc4ccn(C)c4c3)c3nccnc3c2)C1 (configuration not stated)", "readout.number": 245}

Field request: solubility kinetic at 500 µM | item: `Cn1ccc2ccc(-c3cc(Nc4cnccc4C(=O)Nc4cncnc4)cc4nccnc34)cc21` 4

And `Cn1ccc2ccc(-c3cc(Nc4ccccc4S(=O)(=O)NCc4cncnc4)cc4nccnc34)cc21` ? 3

Data origin: ChEMBL document CHEMBL4330130
